As shown below, each of these sequences has a reported PBM binding z-score value.
test system: THRa:RXRa (NR concentration 90 nM, RXRa partner concentration 90 nM); test: PBM binding z-score (relative to random genomic background probes); higher = stronger binding; sequences stand for … in GC…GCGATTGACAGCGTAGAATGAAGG
Write the number on its own, no unit after it.

These recorded examples may help you get a feel for the data.
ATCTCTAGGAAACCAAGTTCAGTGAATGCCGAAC ... 0.46
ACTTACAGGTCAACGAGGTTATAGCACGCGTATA ... 4.02
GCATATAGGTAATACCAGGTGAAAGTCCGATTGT ... 3.99
TCTTGTAGATCAGCAGTTTAAGAAAGCTGGCCAA ... -0.138
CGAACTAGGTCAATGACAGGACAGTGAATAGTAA ... 2.62
CAAACTAGGTCACCAGAAGGTCAAAGTCCGCATG ... 4.35

Query: Find PBM binding z-score (THRa:RXRa (NR concentration 90 nM, RXRa partner concentration 90 nM)) for the entry "ATCTCTAGTTAAGACTCAGTTCAGTGAAGAACGC"
Result: 0.594

Query: Would you kindly repeat that for "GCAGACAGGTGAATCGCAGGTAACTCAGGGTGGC" ?
Result: 1.31

Query: Also "ACTAGTTGGTCAGCTGCGGTCACACACAATTCGG" , if possible.
Result: 2.65

Query: // next record "ATCTCTAGGTAAGACTTAGTTCAGTGAAGAACGC"
Result: 0.798

Query: Then what about the sequence "ACAGACAGGTGATGAAGGTAACTAAGGCTATCAT" ?
Result: 1.28

Query: Another sequence to look at: "TCAGACAGGTGAAGGTATCTCAGGTACGCAGTCG"
Result: 1.2

Query: Same lookup for "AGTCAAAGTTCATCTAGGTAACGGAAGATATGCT" , please.
Result: 3.33

Query: Record: "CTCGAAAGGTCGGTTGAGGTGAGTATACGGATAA"
Result: 5.09

Query: Now try "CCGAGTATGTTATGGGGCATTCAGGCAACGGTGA" .
Result: 0.302

---

tested on: PPARg:RXRa DBDmut IVT, anti-RXR (DBD mutation: RXRa K156A/R161A, NR concentration 270 nM, RXRa partner concentration 90 nM); test: PBM binding z-score (relative to random genomic background probes); higher = stronger binding; sequences stand for … in GC…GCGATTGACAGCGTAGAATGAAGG
Rule: PBM binding z-score under 0.3 gives Criterion not met, otherwise Criterion met.

A selection of reference data follows.
ATCTCTAGGCAACCAAGTTCAGTGAATGCCGAAC ... Criterion met
TATCCTAGGTCATGCGGGCCAGTATAGTGTCGGC ... Criterion met
GCTCGGAGGACAAGATCAGAGCTTTGTCCGTAGA ... Criterion not met

Pending sequence:
Query: Reported PBM binding z-score reaches at least 0.3 for "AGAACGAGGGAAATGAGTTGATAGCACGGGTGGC" ?
Result: Criterion not met

---

tested on: RARb:RXRa (NR concentration 270 nM, RXRa partner concentration 90 nM); experiment: PBM binding z-score (relative to random genomic background probes); higher = stronger binding; sequences stand for … in GC…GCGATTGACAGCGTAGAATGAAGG
Binary classification by PBM binding z-score, with 2 as an inclusive lower bound for YES; all other cases are NO.

// below: answered sequences
CCTGCTGGGCCACGAAAGGTCATTGATTCAGTGA ... YES
TCTTGTAGATCTGCAGGTTAAGAAAGCTGGCCAA ... NO
GCTATTAGTTGAAAGGGCACCCGAATGATTCTCG ... NO

Please turn your attention to the following entry.
Query: Check if PBM binding z-score >= 2 (inclusive). Item: "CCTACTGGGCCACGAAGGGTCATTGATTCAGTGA"
Result: YES

---

tested on: RARb:RXRa (NR concentration 270 nM, RXRa partner concentration 90 nM); assay: PBM binding z-score (relative to random genomic background probes); higher = stronger binding; sequences stand for … in GC…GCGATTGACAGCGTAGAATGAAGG
property-label: PBM binding z-score
Lab note: write the figure by itself, no unit.

These recorded examples may help you get a feel for the data.
CGAACTAGGTCAAGGACAGTGAATCTCCGCACGC ... 3.94
CGTCCAAGGTCAGAGAGGTCGGTGAATGCCGAGT ... 4.51
ACAGACAAGTGATGAAGGTAACTCAGGCTATCAT ... -0.307

Query: Which PBM binding z-score value belongs to "TCTACTTGGTCAAAGGTCACACACTCGAAATGCG" ?
Result: 5.29

Query: Then what about the sequence "CCTTACGGGTCACTGACAGGTAATAGCATTTGGA" ?
Result: 3.79

Query: Try "AATACAGGGTCACTAGGCCAAAGTAGGTACGAAT" next.
Result: 4.31

Query: Lookup "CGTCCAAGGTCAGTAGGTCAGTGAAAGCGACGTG"
Result: 5

Query: Next sequence: "ACTCGGAGGAAAAAGGTCAGAGCTACGCCAGTGA"
Result: 3.88

---

system: LXRb:RXRa (NR concentration 270 nM, RXRa partner concentration 90 nM); experiment: PBM binding z-score (relative to random genomic background probes); higher = stronger binding; sequences stand for … in GC…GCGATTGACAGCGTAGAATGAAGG
Recorded measurements of PBM binding z-score, one per entry
Respond using a number only.

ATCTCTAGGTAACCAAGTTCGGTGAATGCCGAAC ... 0.11

Query: # lookup: PBM binding z-score of "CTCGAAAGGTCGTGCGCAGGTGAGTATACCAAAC"
Result: 3.84

Query: Thanks! And "CAGCCTAGGTCAGGGCCAGTATAGGAGGAACGTT" ?
Result: 0.506

Query: Next up: "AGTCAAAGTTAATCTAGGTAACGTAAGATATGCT"
Result: -0.245

Query: Then what about the sequence "GCTGCTCGGTCAGGTTGGTCAGCTAACGGGTACG" ?
Result: -0.697

Query: Next: "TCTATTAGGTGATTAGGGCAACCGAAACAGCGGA"
Result: 0.425

Query: Another sequence: "TCAGACAGGTGAAAGTAACTCAGGTACGCAGTCG"
Result: 0.85

Query: Now the same for "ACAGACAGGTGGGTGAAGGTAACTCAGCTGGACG"
Result: -0.235

Query: Repeat with "CATACAGGCTCAGCTAGGCCAGAGTAGGGACGGC"
Result: -1.16

Query: Proceed to "AGCTCTAGGTAACCAAGTTCAGTGAATGCCGAAC"
Result: 0.265

Query: Same for "CGTCCAGGGTCAGCAGGTCAGTGAAAGCGACGTG"
Result: 3.1

Query: One more sequence: "ACTTGCGGGTCAACGAGGTTATAGCACGCGTATA"
Result: 4.2

Query: Could you do the same for "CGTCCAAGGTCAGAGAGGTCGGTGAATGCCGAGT" , please?
Result: 2.4

Query: Could you do the same for "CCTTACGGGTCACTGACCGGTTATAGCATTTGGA" , please?
Result: 4.04

---

Overview of reported PBM binding z-score across a group of sequences:
test system: LXRb:RXRa (NR concentration 270 nM, RXRa partner concentration 90 nM); assay: PBM binding z-score (relative to random genomic background probes); higher = stronger binding; sequences stand for … in GC…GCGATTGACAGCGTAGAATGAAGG
API note: the answer field is a bare number with no unit suffix.

CAGACTGGGGCAAAGGTTACCATACTCAGTACGA ... 2.49
GCTAGTTGGTCTGTAAAAGGTCACACACCGGTCG ... 3.98
CAAACTAGGTCACCGGACGGTCAAAGTCCGCATG ... 3.09

Query: Quick one: PBM binding z-score for "ATCGAAAAGTCGTGAGGTGAGTATACAGAAAGGC" ?
Result: -0.0752

Query: Now try "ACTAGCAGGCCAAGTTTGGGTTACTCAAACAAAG" .
Result: -0.296

Query: And the next one, "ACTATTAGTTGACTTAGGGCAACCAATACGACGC" ?
Result: 0.227

Query: And for "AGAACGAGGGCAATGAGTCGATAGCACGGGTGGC" ?
Result: -0.448

Query: Also check "ATCTTTAGGTAAGACTCAGTTCAGTGAAGAACGC"
Result: 0.259

---

tested on: VDR homodimer (NR concentration 270 nM); assay: PBM binding z-score (relative to random genomic background probes); higher = stronger binding; sequences stand for … in GC…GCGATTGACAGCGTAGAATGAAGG
Please note: 1 (yes) applies when PBM binding z-score is 2 or greater, and 0 (no) applies otherwise.

As a guide, the following entries are already answered.
GCTGCTAGGTCAACTGATGGACAGCTAAAGCTCG ... 0 (no)
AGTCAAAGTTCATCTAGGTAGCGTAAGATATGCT ... 1 (yes)
CTCGAGAGGTCGGTTGAGGTGAGTATACGGATAA ... 0 (no)
GGAACGATGGCAAAGTTGATAGCATCTGTCGACG ... 0 (no)
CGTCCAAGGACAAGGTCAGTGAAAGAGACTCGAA ... 0 (no)
ACTAGCAGGCCAACGGTCACTCAAGATTAGTCCG ... 0 (no)

Query: Answer whether PBM binding z-score of "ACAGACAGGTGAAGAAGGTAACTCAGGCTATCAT" is greater than or equal to 2.
Result: 0 (no)

Query: Also, "CTTTACGGGTCACGAGGTTATAGCACGACGAGCG" please.
Result: 1 (yes)

Query: Item: "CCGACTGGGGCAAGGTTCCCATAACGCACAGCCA"
Result: 0 (no)
